Cited source: patent USRE39591E1

- System: up to 32 different microorganisms
- Protocol Details: in vitro antibacterial activity (MIC), agar dilution on Brain Heart Infusion (BHI) agar with Steers replicator
- Type: cell-based
- Cond: Escherichia coli JUHL (code QQ); unit assumed
Measurement Name: MIC

// worked examples, MIC included
CCC1OC(=O)C(C)C(=O)C(C)C(OC2OC(C)CC(N(C)C)C2O)C(C)(OCC=Cc2cccc3ncccc23)CC(C)C(=O)C(C)C2NC(=O)OC12C (stereo not shown) | > 100 µg/mL
CCC1OC(=O)C(C)C(=O)C(C)C(OC2OC(C)CC(N(C)C)C2OC(C)=O)C(C)(OCC=Cc2cnc3ccccc3c2)CC(C)C(=O)C(C)C2NC(=O)OC12C (stereo not shown) | 50 µg/mL
CC[C@H]1OC(=O)[C@H](C)C(=O)[C@H](C)[C@@H](O[C@@H]2O[C@H](C)C[C@H](N(C)C)[C@H]2O)[C@@](C)(OCC=Cc2ccc(OC)cc2)C[C@@H](C)C(=O)[C@H](C)[C@@H](O)[C@]1(C)O | > 100 µg/mL
C=CCOC1(C)CC(C)C(=NO)C(C)C(O)C(C)(O)C(CC)OC(=O)C(C)C(=O)C(C)C1OC1OC(C)CC(N(C)C)C1O (stereo not shown) | > 100 µg/mL
CC[C@H]1OC(=O)[C@H](C)C(=O)[C@H](C)[C@@H](O[C@@H]2O[C@H](C)C[C@H](N(C)C)[C@H]2O)[C@@](C)(OCC=Cc2ccc(F)cc2)C[C@@H](C)C(=O)[C@H](C)[C@@H](O)[C@]1(C)O | > 100 µg/mL

Short answer for `CC[C@H]1OC(=O)[C@H](C)C(=O)[C@H](C)[C@@H](O[C@@H]2O[C@H](C)C[C@H](N(C)C)[C@H]2O)[C@@](C)(OCC#N)C[C@@H](C)C(=O)[C@H](C)[C@@H](O)[C@]1(C)O` : MIC was > 100 µg/mL

Short answer for CC[C@H]1OC(=O)[C@H](C)C(=O)[C@H](C)[C@@H](O[C@@H]2O[C@H](C)C[C@H](N(C)C)[C@H]2O)[C@@](C)(OCC(O)C#N)C[C@@H](C)C(=O)[C@H](C)[C@@H](O)[C@]1(C)O (stereo partly shown) : MIC was > 100 µg/mL

Short answer for `CC[C@H]1OC(=O)[C@H](C)C(=O)[C@H](C)[C@@H](O[C@@H]2O[C@H](C)C[C@H](N(C)C)[C@H]2O)[C@@](C)(OCC=Cc2cnc3ccccc3c2)C[C@@H](C)C(=O)[C@H](C)[C@H]2NC(=O)O[C@@]21C` : MIC was 50 µg/mL

Short answer for CCC1OC(=O)C(C)C(=O)C(C)C(OC2OC(C)CC(N(C)C)C2O)C(C)(OCC=Cc2ccc3c(c2)OCCO3)CC(C)C(=O)C(C)C2NC(=O)OC12C (stereo not shown) : MIC was > 100 µg/mL

Short answer for CCC1OC(=O)C(C)C(=O)C(C)C(OC2OC(C)CC(N(C)C)C2O)C(C)(OCC=Cc2cccc3cccnc23)CC(C)C(=O)C(C)C2NC(=O)OC12C (stereo not shown) : MIC was 100 µg/mL

---

- Test system: up to 32 different microorganisms
- Protocol Details: in vitro antibacterial activity (MIC), agar dilution on Brain Heart Infusion (BHI) agar with Steers replicator
- Assay type: cell-based
- Cond: Mycobacterium smegmatis ATCC 114 (code UU); unit assumed
Measurement Name: MIC (µg/mL)
// return numeric value only (unit: µg/mL, not printed)

Short answer for CC[C@H]1OC(=O)[C@H](C)C(=O)[C@H](C)[C@@H](O[C@@H]2O[C@H](C)C[C@H](N(C)C)[C@H]2O)[C@@](C)(OCC(O)C#N)C[C@@H](C)C(=O)[C@H](C)[C@@H](O)[C@]1(C)O (stereo partly drawn) : MIC was 0.78

Short answer for `CC[C@H]1OC(=O)[C@H](C)C(=O)[C@H](C)[C@@H](O[C@@H]2O[C@H](C)C[C@H](N(C)C)[C@H]2O)[C@@](C)(OCC=Cc2ccc(OC)cc2)C[C@@H](C)C(=O)[C@H](C)[C@@H](O)[C@]1(C)O` : MIC was 3.2

Short answer for `CC[C@H]1OC(=O)[C@H](C)C(=O)[C@H](C)[C@@H](O[C@@H]2O[C@H](C)C[C@H](N(C)C)[C@H]2O)[C@@](C)(OCC=Cc2cnc3ccccc3c2)C[C@@H](C)C(=O)[C@H](C)[C@H]2NC(=O)O[C@@]21C` : MIC was 0.39

Short answer for `CC[C@H]1OC(=O)[C@H](C)C(=O)[C@H](C)[C@@H](O[C@@H]2O[C@H](C)C[C@H](N(C)C)[C@H]2O)[C@@](C)(OCC=Cc2ccccc2)C[C@@H](C)C(=O)[C@H](C)[C@H]2OC(=O)O[C@@]21C` : MIC was 0.78

Short answer for `C=CCO[C@@]1(C)C[C@@H](C)C(=O)[C@H](C)[C@H]2NC(=O)O[C@]2(C)[C@@H](CC)OC(=O)[C@H](C)C(=O)[C@H](C)[C@H]1O[C@@H]1O[C@H](C)C[C@H](N(C)C)[C@H]1O` : MIC was 25

Short answer for `CC[C@H]1OC(=O)[C@H](C)C(=O)[C@H](C)[C@@H](O[C@@H]2O[C@H](C)C[C@H](N(C)C)[C@H]2O)[C@@](C)(OCc2ccc3ccccc3c2)C[C@@H](C)C(=O)[C@H](C)[C@H]2NC(=O)O[C@@]21C` : MIC was 0.78

Short answer for CCC1OC(=O)C(C)C(=O)C(C)C(OC2OC(C)CC(N(C)C)C2O)C(C)(OCC=Cc2ccc3c(c2)OCCO3)CC(C)C(=O)C(C)C2NC(=O)OC12C (stereo not drawn) : MIC was 3.1

Short answer for CCC1OC(=O)C(C)C(=O)C(C)C(OC2OC(C)CC(N(C)C)C2O)C(C)(OCC=Cc2cnc3ccc([N+](=O)[O-])cc3c2)CC(C)C(=O)C(C)C2NC(=O)OC12C (stereo not drawn) : MIC was 0.39

Short answer for `CC[C@H]1OC(=O)[C@H](C)C(=O)[C@H](C)[C@@H](O[C@@H]2O[C@H](C)C[C@H](N(C)C)[C@H]2O)[C@@](C)(OCC=Cc2ccc(Cl)cc2)C[C@@H](C)C(=O)[C@H](C)[C@@H](O)[C@]1(C)O` : MIC was 3.1

Short answer for `CC[C@H]1OC(=O)[C@H](C)C(=O)[C@H](C)[C@@H](O[C@@H]2O[C@H](C)C[C@H](N(C)C)[C@H]2O)[C@@](C)(OCCNCCc2ccccc2)C[C@@H](C)C(=O)[C@H](C)[C@@H](O)[C@]1(C)O` : MIC was 12.5

Short answer for CCC1OC(=O)C(C)C(=O)C(C)C(OC2OC(C)CC(N(C)C)C2O)C(C)(OCC=Cc2ccc3ccccc3c2)CC(C)C(=O)C(C)C2NC(=O)OC12C (stereo not drawn) : MIC was 0.2

Short answer for CCC1OC(=O)C(C)C(=O)C(C)C(OC2OC(C)CC(N(C)C)C2O)C(C)(OCC=Cc2cccc3cccnc23)CC(C)C(=O)C(C)C2NC(=O)OC12C (stereo not drawn) : MIC was 0.78

Short answer for `CC[C@H]1OC(=O)[C@H](C)C(=O)[C@H](C)[C@@H](O[C@@H]2O[C@H](C)C[C@H](N(C)C)[C@H]2O)[C@@](C)(OCC=Cc2ccc(Cl)cc2)C[C@@H](C)C(=O)[C@H](C)[C@H]2OC(=O)O[C@@]21C` : MIC was 0.39

Short answer for CCC1OC(=O)C(C)C(=O)C(C)C(OC2OC(C)CC(N(C)C)C2O)C(C)(OCC=Cc2ccc3c(c2)OCO3)CC(C)C(=O)C(C)C2NC(=O)OC12C (stereo not drawn) : MIC was 0.78

---

- System: up to 32 different microorganisms
- Protocol Details: in vitro antibacterial activity (MIC), agar dilution on Brain Heart Infusion (BHI) agar with Steers replicator
- Type: cell-based
- Cond: Streptococcus Pneumonia GYR 1171 (code YY); unit assumed
Measurement Name: MIC (µg/mL)
// return numeric value only (unit: µg/mL, not printed)

// worked examples, MIC included
CC[C@H]1OC(=O)[C@H](C)C(=O)[C@H](C)[C@@H](O[C@@H]2O[C@H](C)C[C@H](N(C)C)[C@H]2O)[C@@](C)(OCCNCCc2ccccc2)C[C@@H](C)C(=O)[C@H](C)[C@@H](O)[C@]1(C)O [Example 10] | 2
CC[C@H]1OC(=O)[C@H](C)C(=O)[C@H](C)[C@@H](O[C@@H]2O[C@H](C)C[C@H](N(C)C)[C@H]2O)[C@@](C)(OCc2ccc3ccccc3c2)C[C@@H](C)C(=O)[C@H](C)[C@@H](O)[C@]1(C)O [Example 173] | 2
CC[C@H]1OC(=O)[C@H](C)C(=O)[C@H](C)[C@@H](O[C@@H]2O[C@H](C)C[C@H](N(C)C)[C@H]2O)[C@@](C)(OCC=Cc2ccccc2)C[C@@H](C)C(=O)[C@H](C)[C@@H](O)[C@]1(C)O [Example 14] | 0.25
CC[C@H]1OC(=O)[C@H](C)C(=O)[C@H](C)[C@@H](O[C@@H]2O[C@H](C)C[C@H](N(C)C)[C@H]2O)[C@@](C)(OCC=Cc2ccc(OC)cc2)C[C@@H](C)C(=O)[C@H](C)[C@@H](O)[C@]1(C)O [Example 16] | 0.25
CC[C@H]1OC(=O)[C@H](C)C(=O)[C@H](C)[C@@H](O[C@@H]2O[C@H](C)C[C@H](N(C)C)[C@H]2O)[C@@](C)(OCC=Cc2ccc(Cl)cc2)C[C@@H](C)C(=O)[C@H](C)[C@@H](O)[C@]1(C)O [Example 17] | 0.5

Now consider the entry below.
# lookup: CC[C@H]1OC(=O)[C@H](C)C(=O)[C@H](C)[C@@H](O[C@@H]2O[C@H](C)C[C@H](N(C)C)[C@H]2O)[C@@](C)(OCC=Cc2cnc3ccccc3c2)C[C@@H](C)C(=O)[C@H](C)[C@H]2OC(=O)O[C@@]21C [Example 75] on up to 32 different microorganisms, MIC = 0.03
